Values were extracted from paper PMC2819846.

System: Salmonella TA104
ASSAY SUMMARY: Salmonella plate-incorporation mutagenicity assay, strain TA104, with S9 mix
Assay type: cell-based
TEST SETTINGS: TA104 +S9, Test 3, 5 µg/plate; zero-dose 402/395/336
MEASUREMENT NAME: Rev/plate

- MOLECULE: "O[C@@H]1c2ccccc2-c2c(ccc3sccc23)[C@H]1O (racemic) [P[3,4-b]T 6,7-diol]"
  REPORTED VALUE: "498/541"

Prompt line: Can you look up the measured Rev/plate of O[C@@H]1C=Cc2c(ccc3ccc4ccsc4c23)[C@H]1O (racemic) [P[4,3-b]T 8,9-diol] for me?
Response line: 1980/1970

Prompt line: Report Rev/plate for c1ccc2c(c1)ccc1ccc3sccc3c12 [P[3,4-b]T, Phenanthro[3,4,-b]thiophene] please.
Response line: 535/679
